- experimental-target: HCV NS3/4A protease D168A variant (Hepatitis C virus genotype 1a, UniProt P27958, C1185S/D1194A)
- Construct: His tag (cleaved yes)
- Sequence (P27958 1027-1208 C1185S/D1194A): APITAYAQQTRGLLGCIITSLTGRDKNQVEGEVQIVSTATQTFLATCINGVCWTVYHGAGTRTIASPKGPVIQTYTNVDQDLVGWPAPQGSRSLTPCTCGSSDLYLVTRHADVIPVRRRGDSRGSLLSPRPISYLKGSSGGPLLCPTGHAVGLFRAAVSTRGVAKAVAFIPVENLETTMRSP
- assay-context: 2 nM protease preincubated 1 h at room temperature with inhibitor, pH 7.5, 200 nM fluorogenic substrate; Morrison equation global fit; error from global fit of at least three replicates
readout-name: Ki (nM)
# number only, unit nM dropped from output

Examples from the recorded data:
- molecule: "COc1ccc2nc(C)c(O[C@@H]3C[C@H]4C(=O)N[C@]5(C(=O)NS(=O)(=O)C6(C)CC6)C[C@H]5/C=C\\CCCCC[C@H](NC(=O)OC5(C)CC5)C(=O)N4C3)nc2c1 [P4-1]"
  value-units: "nM"
  Ki: 27.9
- molecule: "CCC1(OC(=O)N[C@H]2CCCCC/C=C\\[C@@H]3C[C@@]3(C(=O)NS(=O)(=O)C3(C)CC3)NC(=O)[C@@H]3C[C@@H](Oc4nc5cc(OC)ccc5nc4C)CN3C2=O)CCCC1 [P4-5]"
  value-units: "nM"
  Ki: 21.7
- molecule: "CCc1nc2ccc(OC)cc2nc1O[C@@H]1C[C@H]2C(=O)N[C@]3(C(=O)NS(=O)(=O)C4CC4)C[C@H]3/C=C\\CCCCC[C@H](NC(=O)OC(C)(C)C)C(=O)N2C1 [5172-mcP1P3, reference compound]"
  value-units: "nM"
  Ki: 82.4
- molecule: "COc1ccc2nc(C)c(O[C@@H]3C[C@H]4C(=O)N[C@]5(C(=O)NS(=O)(=O)C6(C)CC6)C[C@H]5/C=C\\CCCCC[C@H](NC(=O)OC5C[C@@H]6C[C@@H]6C5)C(=O)N4C3)nc2c1 (some centres unmarked) [P4-7]"
  value-units: "nM"
  Ki: 2.3

Okay, next one:
# Ki of COC(=O)N[C@H](C(=O)N[C@H]1CCCCC/C=C\[C@@H]2C[C@@]2(C(=O)NS(=O)(=O)C2(C)CC2)NC(=O)[C@@H]2C[C@@H](Oc3nc4cc(OC)ccc4nc3C)CN2C1=O)C(C)C [P4P5-1B] = 102

Data provenance: paper PMC7157764
